Exercise: state measured AC50 for each of the molecules provided.
Molecular target: Cytochrome P450 1A2 (Homo sapiens, UniProt P05177);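 further: PubChem cytochrome P450 panel assay, CYP1A2 panel member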
Sequence (P05177 whole entry): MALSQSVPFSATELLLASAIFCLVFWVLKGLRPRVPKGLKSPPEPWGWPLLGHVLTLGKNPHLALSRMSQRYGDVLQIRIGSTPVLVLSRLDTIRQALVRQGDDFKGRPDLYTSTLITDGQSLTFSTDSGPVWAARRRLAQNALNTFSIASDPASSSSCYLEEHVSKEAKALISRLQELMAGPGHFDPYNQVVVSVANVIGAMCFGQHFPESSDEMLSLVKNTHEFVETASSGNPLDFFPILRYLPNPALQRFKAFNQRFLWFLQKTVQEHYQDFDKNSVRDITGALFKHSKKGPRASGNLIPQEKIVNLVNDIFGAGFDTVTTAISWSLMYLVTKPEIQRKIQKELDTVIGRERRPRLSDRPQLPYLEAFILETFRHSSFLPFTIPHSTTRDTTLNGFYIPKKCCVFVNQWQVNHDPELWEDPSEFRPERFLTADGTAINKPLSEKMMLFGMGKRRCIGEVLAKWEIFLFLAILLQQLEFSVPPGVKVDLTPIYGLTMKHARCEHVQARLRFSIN

Worked cases, answers included:
molecule	AC50
O=C(O)/C=C\C(=O)Nc1ccc2c(c1)C(=O)c1cc(F)ccc1-2	0.794 µM (inconclusive)
Cc1ccccc1OCC(=O)NC(=S)Nc1ccc(N2CCOCC2)c(Cl)c1	12.6 µM (inconclusive)
COc1ccc(NC(=O)N2CCC3(CC2)CCN(C(=O)c2csnn2)CC3)cc1	6.31 µM (inconclusive)
COCCn1c(=O)c(-c2cc(F)cc(F)c2)nc2cnc(N3CCN(C)CC3)nc21	15.8 µM (inconclusive)
Cn1cccc1C(=O)N1CCC[C@@]2(CCN(Cc3ccccc3)C2)C1	10 µM (inconclusive)
COc1cc2c(CCNC(C)=O)c[nH]c2cc1O	31.6 µM (inconclusive)
Cc1ccc(SCc2cc(=O)[nH]c(NC(N)=Nc3ccc(C)c(C)c3)n2)cc1	5.62 µM (inconclusive)
O=C(c1cccc(F)c1)N1CCC[C@@]2(CCN(Cc3nccs3)C2)C1	12.6 µM (inconclusive)

State recorded AC50 for all listed molecules.
1. CCCCCC(=O)O[C@H](CC(=O)O)C[N+](C)(C)C
2. Cc1cc(C)c(NC(=O)CSc2nnc(Cc3cccn3C)n2-c2ccc(F)cc2)c(C)c1
3. O=C(O)c1ccc(NCc2nc3cc4ccccc4cc3[nH]2)cc1
4. COC(=O)c1sccc1-c1ccc(C(=O)Nc2cccnc2)o1
5. COc1ccc(COC(=O)N/N=C(\C)CC(=O)Nc2c(C)cc(C)cc2C)cc1

Completion:
31.6 µM (inconclusive)
2.51 µM (inconclusive)
5.01 µM (inconclusive)
0.282 µM (inconclusive)
22.4 µM (inconclusive)

State recorded AC50 for all listed molecules.
1. CCCCCCCCCCCCCCCCCC(=O)NC[C@@H](COP(=O)([O-])OCC[N+](C)(C)C)OCC
2. Cc1ccc(-n2c(S)nnc2-c2cc(C)n(C)n2)cc1
3. O=C(O)c1cc(-c2ccc3cc4c(cc3c2)OCO4)nc2ccccc12
4. Cc1cc(C)c(NC(=O)C(C)Sc2nnc(-c3ccco3)n2-c2ccccc2)c(C)c1 (configuration not stated)

Completion:
["39.8 µM (inconclusive)", "28.2 µM (inconclusive)", "3.16 µM (inconclusive)", "22.4 µM (inconclusive)"]

###

Target: UniProtKB P49327
Sequence (P49327 whole entry): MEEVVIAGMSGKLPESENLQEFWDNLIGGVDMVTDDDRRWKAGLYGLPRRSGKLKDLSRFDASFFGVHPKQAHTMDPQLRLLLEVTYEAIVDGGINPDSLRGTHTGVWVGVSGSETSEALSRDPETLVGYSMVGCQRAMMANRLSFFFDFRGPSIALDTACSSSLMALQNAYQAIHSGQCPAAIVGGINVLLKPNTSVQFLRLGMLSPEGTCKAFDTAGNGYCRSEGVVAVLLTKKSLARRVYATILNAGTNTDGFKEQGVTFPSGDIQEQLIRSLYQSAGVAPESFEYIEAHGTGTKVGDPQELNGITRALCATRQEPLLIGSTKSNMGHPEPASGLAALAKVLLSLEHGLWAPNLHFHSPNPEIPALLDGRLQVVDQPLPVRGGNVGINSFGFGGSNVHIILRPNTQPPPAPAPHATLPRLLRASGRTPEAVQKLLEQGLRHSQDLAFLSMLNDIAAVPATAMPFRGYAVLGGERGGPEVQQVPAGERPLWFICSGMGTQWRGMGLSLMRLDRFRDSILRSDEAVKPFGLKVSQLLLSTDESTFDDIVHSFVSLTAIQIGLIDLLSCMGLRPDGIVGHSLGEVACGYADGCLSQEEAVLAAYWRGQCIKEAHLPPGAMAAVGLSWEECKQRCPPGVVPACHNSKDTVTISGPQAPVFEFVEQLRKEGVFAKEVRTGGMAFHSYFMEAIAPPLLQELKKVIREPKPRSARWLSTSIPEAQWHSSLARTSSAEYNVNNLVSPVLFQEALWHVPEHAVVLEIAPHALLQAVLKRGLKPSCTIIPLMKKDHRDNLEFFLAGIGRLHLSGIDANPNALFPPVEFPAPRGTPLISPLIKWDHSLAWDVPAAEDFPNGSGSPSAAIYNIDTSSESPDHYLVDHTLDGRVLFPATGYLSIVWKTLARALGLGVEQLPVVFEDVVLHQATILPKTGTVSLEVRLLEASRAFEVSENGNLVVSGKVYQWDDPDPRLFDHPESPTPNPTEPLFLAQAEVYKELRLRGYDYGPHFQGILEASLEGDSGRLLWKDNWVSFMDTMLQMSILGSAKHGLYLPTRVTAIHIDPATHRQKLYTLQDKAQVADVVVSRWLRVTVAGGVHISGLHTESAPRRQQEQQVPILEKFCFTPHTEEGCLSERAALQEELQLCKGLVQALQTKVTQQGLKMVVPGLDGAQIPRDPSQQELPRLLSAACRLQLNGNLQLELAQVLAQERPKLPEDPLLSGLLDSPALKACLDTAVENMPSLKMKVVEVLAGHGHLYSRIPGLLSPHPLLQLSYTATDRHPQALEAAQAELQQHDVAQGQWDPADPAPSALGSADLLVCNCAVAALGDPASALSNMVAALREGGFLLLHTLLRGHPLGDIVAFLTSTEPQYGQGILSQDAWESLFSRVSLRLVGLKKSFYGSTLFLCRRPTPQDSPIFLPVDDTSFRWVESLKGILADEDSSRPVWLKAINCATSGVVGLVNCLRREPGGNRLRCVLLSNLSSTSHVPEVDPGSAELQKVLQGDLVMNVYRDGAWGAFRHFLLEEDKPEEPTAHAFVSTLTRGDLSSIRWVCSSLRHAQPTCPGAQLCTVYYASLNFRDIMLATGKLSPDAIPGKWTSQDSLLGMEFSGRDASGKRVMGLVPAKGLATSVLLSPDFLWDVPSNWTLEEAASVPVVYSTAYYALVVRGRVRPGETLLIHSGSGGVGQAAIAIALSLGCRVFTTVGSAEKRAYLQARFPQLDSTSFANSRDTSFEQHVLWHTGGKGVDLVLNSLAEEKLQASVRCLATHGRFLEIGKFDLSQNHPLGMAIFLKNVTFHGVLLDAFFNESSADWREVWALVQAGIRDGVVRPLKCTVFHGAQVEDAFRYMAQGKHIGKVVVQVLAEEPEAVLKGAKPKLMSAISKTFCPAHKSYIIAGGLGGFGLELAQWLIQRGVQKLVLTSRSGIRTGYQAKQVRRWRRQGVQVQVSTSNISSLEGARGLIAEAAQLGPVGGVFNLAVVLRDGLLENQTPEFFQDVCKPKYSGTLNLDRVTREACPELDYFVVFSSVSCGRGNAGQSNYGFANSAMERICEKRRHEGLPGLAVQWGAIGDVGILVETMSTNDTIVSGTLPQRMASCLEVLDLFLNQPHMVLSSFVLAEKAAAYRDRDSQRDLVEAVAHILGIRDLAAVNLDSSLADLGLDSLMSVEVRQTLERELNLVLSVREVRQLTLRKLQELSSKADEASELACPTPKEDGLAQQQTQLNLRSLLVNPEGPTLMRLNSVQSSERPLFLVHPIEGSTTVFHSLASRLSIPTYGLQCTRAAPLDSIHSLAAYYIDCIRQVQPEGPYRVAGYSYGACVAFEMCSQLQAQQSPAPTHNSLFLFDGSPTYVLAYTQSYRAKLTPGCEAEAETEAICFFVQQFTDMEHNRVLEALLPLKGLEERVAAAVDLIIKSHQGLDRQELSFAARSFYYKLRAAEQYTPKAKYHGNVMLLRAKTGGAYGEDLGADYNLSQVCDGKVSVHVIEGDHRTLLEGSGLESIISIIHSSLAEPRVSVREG
Test: inhibition of human FAS-TE enzyme activity – biochemical, kinetic fluorescence intensity, dose response (AID 624326);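 further: rate of fluorescence rise from hydrolysis of a fluorogenic O-methyl fluorescein ester substrate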
Assay type: functional
Active and inactive are the calls of the source.
Assign a class; possible classes are 1.0 for active, 0.0 for inactive

compound	classLabel
O=C(COc1ccc2c3c(c(=O)oc2c1)CCC3)N1CCN(c2ccccc2)CC1	1.0
C[C@H](NC(=O)C1CCN(S(=O)(=O)c2ccccc2)CC1)C(=O)NCc1ccc(Cl)c(Cl)c1	1.0
COc1ccc2[nH]c3c(c2c1)CCN1C(=O)C(CC(=O)NCCC2=CCCCC2)C[C@H](C(=O)N2CCOCC2)[C@@]31CCC1CCCC1 (stereo not given in full)	0.0

Prompt: In this assay, the call recorded for `COc1cc([N+](=O)[O-])cc(/C=N/NC(=O)c2cccnc2)c1O` was what?
Completion: 1.0

Prompt: In this assay, the call recorded for `COc1ccc(C(=O)O)cc1NC(=S)NC(=O)c1ccc(-c2ccc(Cl)cc2)o1` was what?
Completion: 1.0

###

Exercise: state measured EC50 for each of the compounds provided.
Assay: NIH3T3 cell viability loss – ATP luminescence, mouse fibroblasts, counter-screen, dose response (AID 2010);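 further: cells exposed to compound for about 90 hours before reading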
Assay type: functional, cell-based
Active and inactive are the calls of the source.

compound	EC50
CCCCCc1cc(=O)oc2c(C(CCN3CCCC(C)C3)c3ccc(OC)cc3)c(OC)cc(OC)c12 (stereo not drawn)	7.56 µM (active)
c1ccc2c(c1)CC/C2=N/Nc1nc2ccccc2[nH]1	> 30 µM (not active)
COc1ccc(CN2CCC(N(CCc3ccccc3)Cc3ccccc3)CC2)c(OC)c1	> 60 µM (inconclusive)
Cc1ccc(OCC(=O)Nc2ccc(S(=O)(=O)N(C)C3CCN(C)CC3)cc2)c(C)c1	> 60 µM (not active)
O=c1c2c([N+](=O)[O-])cc([N+](=O)[O-])cc2sn1Cc1ccccc1	16.9 µM (active)

State recorded EC50 for all listed compounds.
1. N#C/C(=C(/O)c1ccc([N+](=O)[O-])s1)c1nc2ccccc2[nH]1
2. CC(C)c1ccc(C2C3=C(CC(C)(C)CC3=O)N=C3C2=C(O)c2ccccc23)cc1 (stereo not drawn)
3. Cc1ccc(S(=O)(=O)CCC(=O)c2cccc([N+](=O)[O-])c2)cc1

Completion:
1. 4.89 µM (active)
2. > 60 µM (not active)
3. > 60 µM (not active)

###

Assay: NIH-3T3 fibroblast cytotoxicity, dose response, cytotoxicity control, cell-based, fluorescence, Alamar Blue, secondary assay (AID 2327);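 further: NIH-3T3 mouse fibroblasts cultured with fluconazole at 8 µg/mL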
Assay type: functional
Active and inactive are the calls of the source.
Assign a class; possible classes are active, inactive

Solved entries:
inputSmiles	classLabel
O=C(NC(Nc1nc2ccc([N+](=O)[O-])cc2s1)(C(F)(F)F)C(F)(F)F)c1ccccc1Cl	active
N#Cc1c(Cl)nsc1NC(=O)c1ccccc1	active
CC1=C(CC[C@@H](C)CO)O[C@H]2C[C@H]3[C@@H]4CC[C@H]5C[C@@H](O)CC[C@]5(C)[C@H]4CC(=O)[C@]3(C)[C@@H]12	inactive

Prompt: In this assay, the call recorded for `CN1C(=O)/C(=C/c2cn(CC(=O)N3CCCCC3)c3ccccc23)NC1=S` was what?
Completion: inactive

Prompt: In this assay, the call recorded for `CC(=O)N1CCC(=NNc2nc3ccccc3s2)CC1` was what?
Completion: inactive

###

Please consider the recorded AC50 for Cytochrome P450 2C9 (Homo sapiens, UniProt P11712) in what follows.

molecule	reportedMetric	result
CCC(=O)N(C)/C=C1\Sc2ccccc2C1=O	AC50	12.6 µM (inconclusive)
CC1(C)CC(=O)C(/C=N/CCN2CCN(C(=S)Nc3ccc(F)cc3)CC2)=C(O)C1	AC50	25.1 µM (inconclusive)
COc1ccc(Oc2c(Cl)cnn(-c3ccccc3)c2=O)cc1	AC50	11.2 µM (inconclusive)
O=C(Oc1ccccc1[N+](=O)[O-])c1cccnc1	AC50	15.8 µM (inconclusive)
Cc1ccc(SCc2cc(=O)[nH]c(NC(N)=Nc3ccc(C)c(C)c3)n2)cc1	AC50	2.24 µM (inconclusive)
C/C(=C/C(=O)NCc1ccccc1)C(=O)O	AC50	0.0398 µM (inconclusive)

State recorded AC50 for all listed molecules.
1. Cc1ccccc1OCC(=O)NC(=S)Nc1ccc(N2CCOCC2)c(Cl)c1
2. COCCn1c(=O)c(-c2cc(F)cc(F)c2)nc2cnc(N3CCN(C)CC3)nc21
3. Cc1ccc(S(=O)(=O)NCCn2c(C)cc3ccccc32)cc1
4. Cn1c(=O)c(-c2cccs2)nc2cnc(N3CCNCC3)nc21
5. COc1cccc(Nc2ncc3nc(C)c(=O)n(-c4ccccc4)c3n2)c1
6. Cc1cc(=O)oc(C)c1C(=O)NCCCN1CCN(c2ccc(F)cc2)CC1
7. COc1ccc(/C=N\NC(=O)C2C(=O)NCC2c2ccccc2)cc1O (stereo not drawn)
8. COC(=O)c1ccc(CCc2cc(O)ccc2O)cc1

Completion:
["15.8 µM (inconclusive)", "39.8 µM (inconclusive)", "3.55 µM (inconclusive)", "39.8 µM (inconclusive)", "31.6 µM (inconclusive)", "15.8 µM (inconclusive)", "35.5 µM (inconclusive)", "7.94 µM (inconclusive)"]

State recorded AC50 for all listed molecules.
1. CCNC(=O)C1CC(=O)OC12CCCCC2 (stereo not drawn)
2. Cc1ccc(C(=O)COC(=O)c2ccccc2N2C(=O)C3C4CCC(C4)C3C2=O)cc1C (stereo not drawn)
3. COc1ccc(NC(=O)Cn2cccc2)c(OC)c1
4. Cc1ccnc(NC(=O)c2cccc(NC(=O)COc3ccccc3)c2)c1

Completion:
1. 25.1 µM (inconclusive)
2. 2 µM (inconclusive)
3. 7.08 µM (inconclusive)
4. 4.47 µM (inconclusive)

###

Exercise: state measured IC50 for each of the compounds provided.
Target: Carboxy-terminal domain RNA polymerase II polypeptide A small phosphatase 1 (Homo sapiens)
Sequence (Q9GZU7 whole entry): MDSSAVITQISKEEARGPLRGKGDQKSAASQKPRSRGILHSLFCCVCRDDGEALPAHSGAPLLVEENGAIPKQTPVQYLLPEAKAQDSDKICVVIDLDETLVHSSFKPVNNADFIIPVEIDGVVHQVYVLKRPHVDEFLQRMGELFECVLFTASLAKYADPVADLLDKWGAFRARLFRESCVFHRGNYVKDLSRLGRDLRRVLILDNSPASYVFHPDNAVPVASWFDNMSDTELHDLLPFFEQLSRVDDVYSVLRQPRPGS
Assay: CTDSP1 inhibitors, concentration-response, biochemical, absorbance readout, ultra-high-throughput screen actives (AID 540297)
Type: functional
The source made the active and inactive calls.

State recorded IC50 for all listed compounds.
1. COc1ccc(/C=N/NC(=O)c2ccc(O)cc2O)cc1CSc1ccccn1
2. O=C(N/N=C/c1ccc(OC(=O)c2ccc3c(c2)OCO3)cc1)c1cncc(Br)c1
3. O=C(O)c1cc(S(=O)(=O)N2CCN(S(=O)(=O)c3ccc4ccccc4c3)CC2)ccc1Br
4. COc1cc(/C=C2\C(=N)N3N=C(S(C)(=O)=O)SC3=NC2=O)ccc1OC(=O)c1ccco1
5. O=C(COC(=O)c1c2c(nc3ccccc13)/C(=C\c1ccco1)CC2)NC1CCCC1

Completion:
["5.92 µM (active)", "1.8 µM (active)", "6.22 µM (active)", "4.55 µM (active)", "2.49 µM (active)"]
